Source listed as PubChem BioAssay AID1963971.

System: 953936-095-R-J2-PDC spheroids with HUVEC/MSC, viability
ASSAY_METHOD_TEXT: Anticancer human tumor 953936-095-R-J2-PDC patient-derived cervical squamous cell carcinoma cell line growth inhibition [PI3K]
ASSAY_CONTEXT: second compound 3.16 µM; first compound 3.16 µM; hits give low values
RECORDED_ENDPOINT: viability, T/C (%)
Entry rule: numbers only, all in %.

Exercise: Value wanted: viability, T/C (953936-095-R-J2-PDC spheroids with HUVEC/MSC, viability) of entry CC(C)NCC(C(=O)N1CCN(c2ncnc3c2C(C)CC3O)CC1)c1ccc(Cl)cc1 (configuration not stated) + Cc1nc(NC(=O)N2CCCC2C(N)=O)sc1-c1ccnc(C(C)(C)C(F)(F)F)c1
Key: 11.3

Exercise: Try the compound C#Cc1c(F)ccc2cc(O)cc(-c3ncc4c(N5CC6CCC(C5)N6)nc(OCC56CCCN5CC(F)C6)nc4c3F)c12 (configuration not stated) + CC(Nc1ncnc2nc[nH]c12)c1cc2cccc(Cl)c2c(=O)n1-c1ccccc1
Key: 60.3

Exercise: Try the compound C[C@@H](NC(=O)c1ncnc(N)c1Cl)c1ncc(C(=O)Nc2cc(C(F)(F)F)c(Cl)cn2)s1 + CC(Nc1ncnc2nc[nH]c12)c1cc2cccc(Cl)c2c(=O)n1-c1ccccc1
Key: 80.1

Exercise: Try the compound CCCS(=O)(=O)Nc1ccc(F)c(C(=O)c2c[nH]c3ncc(-c4ccc(Cl)cc4)cc23)c1F + CC(Nc1ncnc2nc[nH]c12)c1cc2cccc(Cl)c2c(=O)n1-c1ccccc1
Key: 86.9

Exercise: Try the compound C#Cc1c(F)ccc2cc(O)cc(-c3ncc4c(N5CC6CCC(C5)N6)nc(OCC56CCCN5CC(F)C6)nc4c3F)c12 (configuration not stated) + Cc1nc(NC(=O)N2CCCC2C(N)=O)sc1-c1ccnc(C(C)(C)C(F)(F)F)c1
Key: 12.3

Exercise: Try the compound CC1(C)CCC(Nc2ncc(C(F)(F)F)c(-c3c[nH]c4c(P(C)(C)=O)c(C#N)ccc34)n2)CN1 (configuration not stated) + CC(Nc1ncnc2nc[nH]c12)c1cc2cccc(Cl)c2c(=O)n1-c1ccccc1
Key: 45.7

Exercise: Try the compound CC(Cn1ccc(-c2ccc(C#N)c(Cl)c2)n1)NC(=O)c1cc(C(C)O)[nH]n1 (configuration not stated) + Cc1nc(NC(=O)N2CCCC2C(N)=O)sc1-c1ccnc(C(C)(C)C(F)(F)F)c1
Key: 26.9

* * *

Tested on: 953936-095-R-J2-PDC spheroids with HUVEC/MSC, viability
ASSAY_METHOD_TEXT: Anticancer human tumor 953936-095-R-J2-PDC cell line growth inhibition [PI3K]; active means viability on the fitted dose curve at most 10% of control; inactive means the rest;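 note: spheroids exposed to compounds for seven days before read-out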
ASSAY_CONTEXT: second compound 0.1 µM; first compound 0.1 µM
Please answer using one outcome listed in t for active, f for inactive

Exercise: Write down the call the test reported for this molecule. Item: CC(C)n1nc(-c2ccc3oc(N)nc3c2)c2c(N)ncnc21 + CC(Nc1ccc2c(c1)OCCn1cc(N3C(=O)OCC3C(F)F)nc1-2)C(N)=O
Key: t

Exercise: Try the molecule C#Cc1c(F)ccc2cc(O)cc(-c3ncc4c(N5CC6CCC(C5)N6)nc(OCC56CCCN5CC(F)C6)nc4c3F)c12 (stereo not given) + CC(Nc1ccc2c(c1)OCCn1cc(N3C(=O)OCC3C(F)F)nc1-2)C(N)=O
Key: f

Exercise: Try the molecule CCN1CCN(Cc2ccc(Nc3ncc(F)c(-c4cc(F)c5nc(C)n(C(C)C)c5c4)n3)nc2)CC1 + CC(Nc1ncnc2nc[nH]c12)c1cc2cccc(Cl)c2c(=O)n1-c1ccccc1
Key: f

Exercise: Try the molecule C=CC(=O)N1CCN(c2nc(=O)n(-c3c(C)ccnc3C(C)C)c3nc(-c4c(O)cccc4F)c(F)cc23)C(C)C1 (stereo not given) + Cc1nc(NC(=O)N2CCCC2C(N)=O)sc1-c1ccnc(C(C)(C)C(F)(F)F)c1
Key: f

Exercise: Try the molecule Cn1ncnc1[C@H]1c2n[nH]c(=O)c3cc(F)cc(c23)N[C@@H]1c1ccc(F)cc1 + COc1c(OCCCN2CCOCC2)ccc2c3n(c(=NC(=O)c4cnc(N)nc4)nc12)CCN3
Key: f

* * *

Tested on: 953936-095-R-J2-PDC spheroids with HUVEC/MSC, viability
ASSAY_METHOD_TEXT: Anticancer human tumor 953936-095-R-J2-PDC cell line growth inhibition [PI3K];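 note: spheroids exposed to compounds for seven days before read-out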
ASSAY_CONTEXT: second compound 0.0316 µM; first compound 0.0316 µM; hits give low values
Give viability, T/C for every item shown.
Entry rule: numbers only, all in %.

Exercise: Which measured viability, T/C value corresponds to C#Cc1c(F)ccc2cc(O)cc(-c3ncc4c(N5CC6CCC(C5)N6)nc(OCC56CCCN5CC(F)C6)nc4c3F)c12 (stereo not given) + CC(Nc1ccc2c(c1)OCCn1cc(N3C(=O)OCC3C(F)F)nc1-2)C(N)=O ?
Key: 78.3

Exercise: Try the compound CNC(=O)c1ccc(N2C(=S)N(c3ccc(C#N)c(C(F)(F)F)c3)C(=O)C2(C)C)cc1F + CC(Nc1ccc2c(c1)OCCn1cc(N3C(=O)OCC3C(F)F)nc1-2)C(N)=O
Key: 75.9

Exercise: Try the compound C[C@@H](NC(=O)c1ncnc(N)c1Cl)c1ncc(C(=O)Nc2cc(C(F)(F)F)c(Cl)cn2)s1 + COc1c(OCCCN2CCOCC2)ccc2c3n(c(=NC(=O)c4cnc(N)nc4)nc12)CCN3
Key: 40.9

Exercise: Try the compound CC(C)n1nc(-c2ccc3oc(N)nc3c2)c2c(N)ncnc21 + Cc1nc(NC(=O)N2CCCC2C(N)=O)sc1-c1ccnc(C(C)(C)C(F)(F)F)c1
Key: 44.8

Exercise: Try the compound CC(C)n1nc(-c2ccc3oc(N)nc3c2)c2c(N)ncnc21 + CC(Nc1ccc2c(c1)OCCn1cc(N3C(=O)OCC3C(F)F)nc1-2)C(N)=O
Key: 35.7

Exercise: Try the compound CCN1CCN(Cc2ccc(Nc3ncc(F)c(-c4cc(F)c5nc(C)n(C(C)C)c5c4)n3)nc2)CC1 + Cc1nc(NC(=O)N2CCCC2C(N)=O)sc1-c1ccnc(C(C)(C)C(F)(F)F)c1
Key: 88

Exercise: Try the compound CC(C)n1nc(-c2ccc3oc(N)nc3c2)c2c(N)ncnc21 + CC(Nc1ncnc2nc[nH]c12)c1cc2cccc(Cl)c2c(=O)n1-c1ccccc1
Key: 53.7

Exercise: Try the compound CCN1CCN(Cc2ccc(Nc3ncc(F)c(-c4cc(F)c5nc(C)n(C(C)C)c5c4)n3)nc2)CC1 + CC(Nc1ccc2c(c1)OCCn1cc(N3C(=O)OCC3C(F)F)nc1-2)C(N)=O
Key: 72.5

Exercise: Try the compound CC(=O)c1c(C)c2cnc(Nc3ccc(N4CCNCC4)cn3)nc2n(C2CCCC2)c1=O + Cc1nc(NC(=O)N2CCCC2C(N)=O)sc1-c1ccnc(C(C)(C)C(F)(F)F)c1
Key: 103

Exercise: Try the compound Cn1nccc1Nc1nccc(-c2ccn(C(CO)c3ccc(Cl)c(F)c3)c(=O)c2)n1 (stereo not given) + COc1c(OCCCN2CCOCC2)ccc2c3n(c(=NC(=O)c4cnc(N)nc4)nc12)CCN3
Key: 39.4

* * *

Tested on: 953936-095-R-J2-PDC spheroids with HUVEC/MSC, viability
ASSAY_METHOD_TEXT: Anticancer human tumor 953936-095-R-J2-PDC cell line growth inhibition [PI3K];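 note: spheroids exposed to compounds for seven days before read-out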
ASSAY_CONTEXT: second compound 3.16 µM; first compound 0.00316 µM; hits give low values
RECORDED_ENDPOINT: viability, T/C (%)
Entry rule: numbers only, all in %.

Exercise: Which measured viability, T/C value corresponds to CC(=O)c1c(C)c2cnc(Nc3ccc(N4CCNCC4)cn3)nc2n(C2CCCC2)c1=O + CC(Nc1ncnc2nc[nH]c12)c1cc2cccc(Cl)c2c(=O)n1-c1ccccc1 ?
Key: 78.2

Exercise: Try the compound CC(C)n1nc(-c2ccc3oc(N)nc3c2)c2c(N)ncnc21 + CC(Nc1ncnc2nc[nH]c12)c1cc2cccc(Cl)c2c(=O)n1-c1ccccc1
Key: 68.8

Exercise: Try the compound Cn1ncnc1[C@H]1c2n[nH]c(=O)c3cc(F)cc(c23)N[C@@H]1c1ccc(F)cc1 + Cc1nc(NC(=O)N2CCCC2C(N)=O)sc1-c1ccnc(C(C)(C)C(F)(F)F)c1
Key: 26.4

* * *

Give viability, T/C for every item shown.
Tested on: 953936-095-R-J2-PDC spheroids with HUVEC/MSC, viability
ASSAY_METHOD_TEXT: Anticancer human tumor 953936-095-R-J2-PDC cell line growth inhibition [PI3K];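 note: spheroids exposed to compounds for seven days before read-out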
ASSAY_CONTEXT: second compound 0.0316 µM; first compound 0.1 µM; hits give low values
Entry rule: numbers only, all in %.

Exercise: Value wanted: viability, T/C (953936-095-R-J2-PDC spheroids with HUVEC/MSC, viability) of entry Cn1nccc1Nc1nccc(-c2ccn(C(CO)c3ccc(Cl)c(F)c3)c(=O)c2)n1 (stereo unspecified) + COc1c(OCCCN2CCOCC2)ccc2c3n(c(=NC(=O)c4cnc(N)nc4)nc12)CCN3
Key: 38.2

Exercise: Try the molecule CC1(C)CCC(CN2CCN(c3ccc(C(=O)NS(=O)(=O)c4ccc(NCC5CCOCC5)c([N+](=O)[O-])c4)c(Oc4cnc5[nH]ccc5c4)c3)CC2)=C(c2ccc(Cl)cc2)C1 + COc1c(OCCCN2CCOCC2)ccc2c3n(c(=NC(=O)c4cnc(N)nc4)nc12)CCN3
Key: 50

Exercise: Try the molecule CC1(C)CCC(CN2CCN(c3ccc(C(=O)NS(=O)(=O)c4ccc(NCC5CCOCC5)c([N+](=O)[O-])c4)c(Oc4cnc5[nH]ccc5c4)c3)CC2)=C(c2ccc(Cl)cc2)C1 + Cc1nc(NC(=O)N2CCCC2C(N)=O)sc1-c1ccnc(C(C)(C)C(F)(F)F)c1
Key: 96.5

Exercise: Try the molecule CC1(C)CCC(CN2CCN(c3ccc(C(=O)NS(=O)(=O)c4ccc(NCC5CCOCC5)c([N+](=O)[O-])c4)c(Oc4cnc5[nH]ccc5c4)c3)CC2)=C(c2ccc(Cl)cc2)C1 + CC(Nc1ccc2c(c1)OCCn1cc(N3C(=O)OCC3C(F)F)nc1-2)C(N)=O
Key: 74.6

Exercise: Try the molecule C#Cc1c(F)ccc2cc(O)cc(-c3ncc4c(N5CC6CCC(C5)N6)nc(OCC56CCCN5CC(F)C6)nc4c3F)c12 (stereo unspecified) + Cc1nc(NC(=O)N2CCCC2C(N)=O)sc1-c1ccnc(C(C)(C)C(F)(F)F)c1
Key: 102

Exercise: Try the molecule CCCS(=O)(=O)Nc1ccc(F)c(C(=O)c2c[nH]c3ncc(-c4ccc(Cl)cc4)cc23)c1F + CC(Nc1ccc2c(c1)OCCn1cc(N3C(=O)OCC3C(F)F)nc1-2)C(N)=O
Key: 78.7

Exercise: Try the molecule Cn1ncnc1[C@H]1c2n[nH]c(=O)c3cc(F)cc(c23)N[C@@H]1c1ccc(F)cc1 + CC(Nc1ccc2c(c1)OCCn1cc(N3C(=O)OCC3C(F)F)nc1-2)C(N)=O
Key: 74.2

Exercise: Try the molecule CC(C)NCC(C(=O)N1CCN(c2ncnc3c2C(C)CC3O)CC1)c1ccc(Cl)cc1 (stereo unspecified) + Cc1nc(NC(=O)N2CCCC2C(N)=O)sc1-c1ccnc(C(C)(C)C(F)(F)F)c1
Key: 89.2

Exercise: Try the molecule Cn1ncnc1[C@H]1c2n[nH]c(=O)c3cc(F)cc(c23)N[C@@H]1c1ccc(F)cc1 + Cc1nc(NC(=O)N2CCCC2C(N)=O)sc1-c1ccnc(C(C)(C)C(F)(F)F)c1
Key: 95.7

Exercise: Try the molecule CC1(C)CCC(Nc2ncc(C(F)(F)F)c(-c3c[nH]c4c(P(C)(C)=O)c(C#N)ccc34)n2)CN1 (stereo unspecified) + CC(Nc1ccc2c(c1)OCCn1cc(N3C(=O)OCC3C(F)F)nc1-2)C(N)=O
Key: 42.4

Exercise: Try the molecule CCCS(=O)(=O)Nc1ccc(F)c(C(=O)c2c[nH]c3ncc(-c4ccc(Cl)cc4)cc23)c1F + Cc1nc(NC(=O)N2CCCC2C(N)=O)sc1-c1ccnc(C(C)(C)C(F)(F)F)c1
Key: 95.1
